I'd be grateful if you could share measured sensor-assay potency score (higher = more potent) for these entries.
- assay_target: HNF1A
- test_summary: pooled miR-30 sensor sort-seq; sequence = guide strand; note: reference of the scale not given here
- protocol_conditions: shRNA

Quick one: sensor-assay potency score (higher = more potent) of TACTTCTGCAGTCTCACTGGTC ? -0.169

Quick one: sensor-assay potency score (higher = more potent) of TTGTAGACACGCACCTCCGTGA ? -0.58

Quick one: sensor-assay potency score (higher = more potent) of TAGGACTTGACCATCTTCGCCA ? 0.419

Quick one: sensor-assay potency score (higher = more potent) of TGGTTGGTAGCTCATCACCTGT ? -1.74

Quick one: sensor-assay potency score (higher = more potent) of TGAGCTCTGGTACAGCACCAGG ? -1.55

Quick one: sensor-assay potency score (higher = more potent) of TAGCGTCTCTCGCTCCTCCTTG ? -0.628

Quick one: sensor-assay potency score (higher = more potent) of ATCGTCGTCCGTCTCGTCCTCG ? -0.832

====

- assay_target: SLITRK3
- test_summary: pooled miR-30 sensor sort-seq; sequence = guide strand
- protocol_conditions: shRNA
readout: sensor-assay potency score (higher = more potent)
Respond with the number and no other words.

Quick one: sensor-assay potency score (higher = more potent) of TTCTCATTGAGGTCTATCTGGA ? -0.877

Quick one: sensor-assay potency score (higher = more potent) of TAAAAAAGAACCTTTAACCTAT ? 0.15

Quick one: sensor-assay potency score (higher = more potent) of TTAACTTCACAGTAGCATGGAT ? -0.128

Quick one: sensor-assay potency score (higher = more potent) of TTATCCACAACATCCTTCCTCT ? 0.0957

Quick one: sensor-assay potency score (higher = more potent) of TTGCAGTTGACAGTCAAGCCAA ? -0.544

Quick one: sensor-assay potency score (higher = more potent) of TTCATGTAGATATAGTCTCTTT ? -0.676

Quick one: sensor-assay potency score (higher = more potent) of TTGCACATTTGGGTAACCGGGT ? -0.695

Quick one: sensor-assay potency score (higher = more potent) of TTTCTCGTAGGTCCTTTCCATG ? -1.36

====

- assay_target: CYTH1
- test_summary: pooled miR-30 sensor sort-seq; sequence = guide strand
- protocol_conditions: shRNA
readout: sensor-assay potency score (higher = more potent)

Quick one: sensor-assay potency score (higher = more potent) of TAACTTGGTCTTTATTGTCGGG ? -0.54

Quick one: sensor-assay potency score (higher = more potent) of TAGGAAACACTTGAGAACCAGG ? -0.778

Quick one: sensor-assay potency score (higher = more potent) of TCGTTCTCTATTAAGAACTGGA ? -0.271

Quick one: sensor-assay potency score (higher = more potent) of TTGTCAGTCAGAATGAACCAGC ? -0.752

====

- assay_target: C9orf37
- test_summary: pooled miR-30 sensor sort-seq; sequence = guide strand
- protocol_conditions: shRNA
readout: sensor-assay potency score (higher = more potent)
Respond with the number and no other words.

Quick one: sensor-assay potency score (higher = more potent) of TTACCTTATCTATAAAATGCAC ? -0.752

Quick one: sensor-assay potency score (higher = more potent) of TTATCTATAAAATGCACAGGAC ? -1.03

Quick one: sensor-assay potency score (higher = more potent) of TACCTTATCTATAAAATGCACA ? -0.634

Quick one: sensor-assay potency score (higher = more potent) of TTTGTCAGTTACCTTATCTATA ? -0.888

Quick one: sensor-assay potency score (higher = more potent) of ATGGTGGTGAAGAAGGCTCTGG ? -0.917

Quick one: sensor-assay potency score (higher = more potent) of TCAAATTCCAGTTCTCCTTTAG ? -1.07

Quick one: sensor-assay potency score (higher = more potent) of TTCTGTGGAACAGCATTTCTCA ? -0.352
